Target: Alpha-glucosidase MAL12 (Saccharomyces cerevisiae S288c)
Sequence (P53341 whole entry): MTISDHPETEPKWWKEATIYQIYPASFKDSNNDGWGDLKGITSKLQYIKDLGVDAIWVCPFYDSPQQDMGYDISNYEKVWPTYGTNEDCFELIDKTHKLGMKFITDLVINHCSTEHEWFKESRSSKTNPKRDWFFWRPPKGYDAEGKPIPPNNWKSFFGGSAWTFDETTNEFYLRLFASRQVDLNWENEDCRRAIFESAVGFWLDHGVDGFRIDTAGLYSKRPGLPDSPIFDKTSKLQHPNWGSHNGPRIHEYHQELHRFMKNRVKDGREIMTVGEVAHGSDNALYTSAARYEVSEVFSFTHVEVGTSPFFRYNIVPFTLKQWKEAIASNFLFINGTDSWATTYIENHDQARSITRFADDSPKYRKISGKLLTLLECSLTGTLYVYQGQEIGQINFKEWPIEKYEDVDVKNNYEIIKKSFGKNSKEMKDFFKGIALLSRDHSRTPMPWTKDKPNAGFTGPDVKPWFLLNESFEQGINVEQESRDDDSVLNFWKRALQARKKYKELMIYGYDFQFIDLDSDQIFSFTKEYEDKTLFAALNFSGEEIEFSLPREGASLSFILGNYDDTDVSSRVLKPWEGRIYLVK
Catalogue of pIC50 readings, one per entry.
Reminder that pIC50 means the negative base-10 logarithm of the concentration expressed in mol/L.

Examples from the recorded data:
CCOc1ccccc1NC(=O)Cn1cc(Cn2c(-c3cccc(Br)c3)nc(-c3ccccc3)c2-c2ccccc2)nn1 :: 4.82
COc1cc(-c2nc(-c3ccccc3)c(-c3ccccc3)n2Cc2cn(CC(=O)Nc3ccc(Cl)cc3)nn2)cc(OC)c1OC :: 4.53

Now consider the entry below.
**Q:** API: value(readout= pIC50, system= Alpha-glucosidase MAL12 (Saccharomyces cerevisiae S288c), query= "O=C(Cn1cc(Cn2c(-c3ccc(F)cc3)nc(-c3ccccc3)c2-c2ccccc2)nn1)Nc1ccc(Cl)cc1Cl" )
**A:** 4.64

###

Target: Alpha-glucosidase MAL12 (Saccharomyces cerevisiae S288c)
measured.quantity: Ki (µM)
API: value field is a number in µM; no unit string.

**Q:** Which Ki value is on record for "CCOc1ccccc1NC(=O)Cn1cc(Cn2c(-c3cccc(Br)c3)nc(-c3ccccc3)c2-c2ccccc2)nn1" ?
**A:** 14.8

###

Form: system (Alpha-glucosidase MAL12 (Saccharomyces cerevisiae S288c, UniProt P53341)), quantity (IC50), values below.
API: value field is a number in µM; no unit string.

CCOc1ccc(NC(=O)Cn2cc(Cn3c(-c4cccc(Br)c4)nc(-c4ccccc4)c3-c3ccccc3)nn2)cc1 :: 19.6

**Q:** Which IC50 value is on record for "Cc1ccc(NC(=O)Cn2cc(Cn3c(-c4cccc(Cl)c4)nc(-c4ccccc4)c3-c3ccccc3)nn2)c(C)c1" ?
**A:** 38.5

**Q:** Which IC50 value is on record for "CCOc1ccc(NC(=O)Cn2cc(Cn3c(-c4ccc(C(=O)OC)cc4)nc(-c4ccccc4)c3-c3ccccc3)nn2)cc1" ?
**A:** 17

**Q:** Which IC50 value is on record for "COc1cc(-c2nc(-c3ccccc3)c(-c3ccccc3)n2Cc2cn(CC(=O)Nc3cccc(C)c3)nn2)cc(OC)c1OC" ?
**A:** 20.3

**Q:** Which IC50 value is on record for "Cc1ccccc1NC(=O)Cn1cc(Cn2c(-c3ccc(Br)cc3)nc(-c3ccccc3)c2-c2ccccc2)nn1" ?
**A:** 29.3

###

Catalogue of IC50 readings, one per entry.
Molecular target: Alpha-glucosidase MAL12 (Saccharomyces cerevisiae S288c)
API: value field is a number in µM; no unit string.

Examples from the recorded data:
COc1ccc(-c2nc(-c3ccccc3)c(-c3ccccc3)n2Cc2cn(CC(=O)Nc3ccc(Cl)cc3Cl)nn2)cc1OC :: 21.6
CCOc1ccccc1NC(=O)Cn1cc(Cn2c(-c3ccccc3F)nc(-c3ccccc3)c2-c2ccccc2)nn1 :: 36.9

**Q:** API: value(readout= IC50, system= Alpha-glucosidase MAL12 (Saccharomyces cerevisiae S288c), query= "COc1ccccc1-c1nc(-c2ccccc2)c(-c2ccccc2)n1Cc1cn(CC(=O)Nc2ccc(C)cc2)nn1" )
**A:** 27
